Let's look at some molecules and their measured MIC.
Tested on: S. mutans c.i.
Assay details: MIC/MBC broth microdilution, S. mutans
Format: cell-based, Streptococcus mutans
Condition info: water additive DMSO
Residues, ends and D or L forms follow the SMILES beside them.

Below are worked cases with known answers.
CC(C)C[C@H](NC(=O)[C@H](CCCNC(=N)N)NC(=O)OCc1ccccc1)C(=O)N[C@H](CNC(=O)C(=Cc1ccccc1)c1ccccc1)C(C)C    > 512 µg/mL
CC(C)[C@@H](CNC(=O)/C=C/c1ccccc1)NC(=O)[C@H](Cc1c[nH]cn1)NC(=O)[C@H](CCCCN)NC(=O)OCc1ccccc1    > 512 µg/mL

// "CC(C)[C@@H](CNC(=O)C(=Cc1ccccc1)c1ccccc1)NC(=O)[C@H](CCCNC(=N)N)NC(=O)[C@H](CCCNC(=N)N)NC(=O)OCc1ccccc1" : MIC value = > 512 µg/mL

// "Cc1ccccc1COC(=O)N[C@@H](CCCNC(=N)N)C(=O)N[C@@H](CC(C)C)C(=O)N[C@H](CNC(=O)/C=C/c1ccccc1)C(C)C" : MIC value = > 512 µg/mL

Measured MIC of CC(C)[C@H](NC(=O)[C@H](Cc1c[nH]cn1)NC(=O)[C@H](CCCNC(=N)N)NC(=O)OCc1ccccc1)C(=O)NCCc1ccccc1 [Compound A-219] (HELM PEPTIDE1{[O=C(OCc1ccccc1)[*:2]].R.H.V.[c1ccc(CCN[*:1])cc1]}$$$$V2.0) : > 512 µg/mL

Lookup result for CC(C)[C@H](NC(=O)[C@H](CCCNC(=N)N)NC(=O)[C@H](CCCNC(=N)N)NC(=O)OCc1ccccc1)C(=O)NCCc1ccccc1 [Compound A-221] (HELM PEPTIDE1{[O=C(OCc1ccccc1)[*:2]].R.R.V.[c1ccc(CCN[*:1])cc1]}$$$$V2.0) ; measured MIC: > 512 µg/mL

====

Test system: S. agalactiae ATCC 27956
Assay details: MIC/MBC broth microdilution, S. agalactiae
Type: cell-based, Streptococcus agalactiae
Condition info: S. agalactiae, water additive DMSO
Residues, ends and D or L forms follow the SMILES beside them.
Test readout: MIC

These recorded examples may help you get a feel for the data.
CC(C)[C@H](NC(=O)[C@H](Cc1c[nH]cn1)NC(=O)[C@H](CCCNC(=N)N)NC(=O)OCc1ccccc1)C(=O)NCCc1ccccc1 [Compound A-219] (HELM PEPTIDE1{[O=C(OCc1ccccc1)[*:2]].R.H.V.[c1ccc(CCN[*:1])cc1]}$$$$V2.0)    > 512 µg/mL
C=CCC(=O)NC[C@@H](NC(=O)[C@H](CC(C)C)NC(=O)[C@H](CCCNC(=N)N)NC(=O)OCc1ccccc1)C(C)C [Compound A-209]    > 512 µg/mL

Pending compound:
MIC recorded for this compound, CC(C)C[C@H](NC(=O)[C@H](CCCNC(=N)N)NC(=O)OCc1ccccc1)C(=O)N[C@H](CN)C(C)C [Compound A-197] , is > 512 µg/mL

====

Test system: P. aeruginosa ATCC 10145
Assay details: MIC/MBC broth microdilution, P. aeruginosa
Type: cell-based
Condition info: water additive EtOH
Residues, ends and D or L forms follow the SMILES beside them.
Reported MIC is given for each of the following compounds.

Would you please look over these solved cases?
CC(C)[C@@H](CNC(=O)C(=Cc1ccccc1)c1ccccc1)NC(=O)[C@H](CCCNC(=N)N)NC(=O)[C@H](CCCCNC(=N)N)NC(=O)OCc1ccccc1    > 512 µg/mL
CC(C)C[C@H](NC(=O)[C@H](CCCNC(=N)N)NC(=O)OCc1ccccc1)C(=O)N[C@H](C(=O)NCCc1ccccc1)C(C)C [Compound A-196] (HELM PEPTIDE1{[O=C(OCc1ccccc1)[*:2]].R.L.V.[c1ccc(CCN[*:1])cc1]}$$$$V2.0)    > 512 µg/mL

Sample "CC(C)[C@@H](CNC(=O)C(=Cc1ccccc1)c1ccccc1)NC(=O)[C@H](CCCNC(=N)N)NC(=O)[C@H](CCCNC(=N)N)NC(=O)OCc1ccccc1" ; MIC observed: > 512 µg/mL

====

Below, each entry is listed alongside its reported MIC.
Test system: S. pyogenes ATCC 19615
Assay details: MIC/MBC broth microdilution, S. pyogenes
Assay type: cell-based, Streptococcus pyogenes
Condition info: S. pyogenes, water additive EtOH
Residues, ends and D or L forms follow the SMILES beside them.
Respond with the bare value in µg/mL.

Example results:
CC(C)[C@@H](CNC(=O)C(=Cc1ccccc1)c1ccccc1)NC(=O)[C@H](Cc1c[nH]cn1)NC(=O)[C@H](CCCCNC(=N)N)NC(=O)OCc1ccccc1    8
CC(C)[C@@H](CNC(=O)C(=Cc1ccccc1)c1ccccc1)NC(=O)[C@H](Cc1c[nH]cn1)NC(=O)[C@H](CCCNC(=N)N)NC(=O)OCc1ccccc1    16
CC(C)[C@H](NC(=O)[C@H](Cc1c[nH]cn1)NC(=O)[C@H](CCCCN)NC(=O)OCc1ccccc1)C(=O)NCCc1ccccc1 [Compound A-220] (HELM PEPTIDE1{[O=C(OCc1ccccc1)[*:2]].K.H.V.[c1ccc(CCN[*:1])cc1]}$$$$V2.0)    512

Now turn to the next molecule.
Per the records, this molecule ( "CC(C)[C@@H](CNC(=O)C(=Cc1ccccc1)c1ccccc1)NC(=O)[C@H](CCCNC(=N)N)NC(=O)[C@H](CCCCN)NC(=O)OCc1ccccc1" ) has MIC equal to 4

Every entry's value here was drawn from paper PMC12332667.
